- measurement target: Stp1 (UniProt B3LFK1)
- Sequence: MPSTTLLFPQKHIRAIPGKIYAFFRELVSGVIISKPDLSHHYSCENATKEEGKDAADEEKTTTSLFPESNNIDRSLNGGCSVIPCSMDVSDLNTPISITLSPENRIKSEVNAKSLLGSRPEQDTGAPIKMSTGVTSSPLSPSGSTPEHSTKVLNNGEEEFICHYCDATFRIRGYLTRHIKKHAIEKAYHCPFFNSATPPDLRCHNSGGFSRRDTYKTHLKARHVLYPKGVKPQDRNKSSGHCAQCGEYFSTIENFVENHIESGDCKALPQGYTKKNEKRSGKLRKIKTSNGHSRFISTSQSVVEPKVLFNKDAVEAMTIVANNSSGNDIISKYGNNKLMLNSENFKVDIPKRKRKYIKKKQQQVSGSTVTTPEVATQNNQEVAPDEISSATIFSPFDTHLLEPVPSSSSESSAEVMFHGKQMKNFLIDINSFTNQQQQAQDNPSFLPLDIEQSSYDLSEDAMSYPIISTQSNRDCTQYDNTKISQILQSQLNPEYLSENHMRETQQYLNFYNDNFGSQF
- assay method text: PBM E-score (8-mer binding enrichment) (E-score (-0.5 to 0.5)); higher = stronger / more preferred TF binding
- setup conditions: protein concentration: 200 nM; construct: GST-full length
The full ranking holds about 33,000 sequences; the median of “E-score (-0.5 to 0.5)” is about -0.016, and the highest 2% start at about 0.32. Only a selection was taken, and the highest values are over-represented in it overall.
Could you label it 1 (yes) if measured PBM E-score is 0.1 or higher, and 0 (no) otherwise?

# biosequence, class name
measured = [
    ("AAACGGAG", "1 (yes)"),
    ("AAACGGTC", "0 (no)"),
    ("AGCTACTG", "0 (no)"),
    ("AGTCCTTG", "0 (no)"),
    ("CCACCTAG", "0 (no)"),
    ("ACCCGTTC", "0 (no)"),
    ("CAGCTTGA", "0 (no)"),
    ("AGAGAGCA", "0 (no)"),
    ("GAGCCGAA", "1 (yes)"),
    ("ATGGCGGG", "0 (no)"),
    ("CTTCATCA", "0 (no)"),
    ("CAAAACGG", "1 (yes)"),
    ("TATTGAGA", "0 (no)"),
    ("AGACGGCC", "1 (yes)"),
    ("CGTGCGGA", "1 (yes)"),
    ("ATAGTGCC", "1 (yes)"),
    ("AAACGGCT", "1 (yes)"),
    ("CAACCACG", "0 (no)"),
    ("GCTGCTGA", "1 (yes)"),
    ("CTAAGTAG", "0 (no)"),
    ("ATAGGGAC", "0 (no)"),
    ("GCCATACC", "0 (no)"),
    ("CGTGCGGC", "1 (yes)"),
    ("TCAATGAA", "0 (no)"),
    ("CAACGGAG", "0 (no)"),
    ("CCGTTCCA", "1 (yes)"),
    ("CAACGGGG", "0 (no)"),
    ("CAGCCGTA", "1 (yes)"),
    ("AATGCACC", "0 (no)"),
    ("GTCGACAA", "0 (no)"),
    ("AAACGGGT", "1 (yes)"),
    ("CGTGCGAC", "0 (no)"),
    ("ACGTTCCG", "0 (no)"),
    ("AAACGGCC", "1 (yes)"),
    ("AAGCCGAA", "1 (yes)"),
    ("AGACGGAT", "1 (yes)"),
    ("AGACCGCC", "0 (no)"),
    ("CTTGCCTC", "0 (no)"),
]

###

- measurement target: Stp1 (UniProt B3LFK1)
- Sequence: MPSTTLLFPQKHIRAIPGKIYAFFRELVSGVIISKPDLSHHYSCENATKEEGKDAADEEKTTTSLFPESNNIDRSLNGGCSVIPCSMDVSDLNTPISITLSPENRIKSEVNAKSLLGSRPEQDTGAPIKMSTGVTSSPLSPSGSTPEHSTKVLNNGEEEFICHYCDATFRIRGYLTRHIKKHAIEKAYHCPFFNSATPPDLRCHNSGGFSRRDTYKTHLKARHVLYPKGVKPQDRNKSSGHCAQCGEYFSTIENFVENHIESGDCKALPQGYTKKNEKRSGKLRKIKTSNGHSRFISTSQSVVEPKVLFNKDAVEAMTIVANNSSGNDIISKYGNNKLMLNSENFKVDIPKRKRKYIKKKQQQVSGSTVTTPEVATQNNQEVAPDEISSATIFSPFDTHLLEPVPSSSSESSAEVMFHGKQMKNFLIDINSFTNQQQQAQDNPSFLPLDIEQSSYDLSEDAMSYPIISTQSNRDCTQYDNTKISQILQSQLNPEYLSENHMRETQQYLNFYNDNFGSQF
- assay method text: PBM E-score (8-mer binding enrichment) (E-score (-0.5 to 0.5)); higher = stronger / more preferred TF binding
- setup conditions: protein concentration: 200 nM; construct: GST-full length
In all, about 33,000 sequences were measured (“E-score (-0.5 to 0.5)”: median about -0.016, highest 2% from about 0.32 on). The sample holds the highest values, similar sequences and a random draw of the others, so the mix is not that of the screen.
Category | rule: reported PBM E-score within range, see low: < 0.05; mid: ≥ 0.05 and < 0.3; high: ≥ 0.3

# biosequence, class name
rows = [
    ("AAAACGGA", "mid"),
    ("GCCCTAGA", "low"),
    ("ATATGCCA", "mid"),
    ("TCTCCGCA", "low"),
    ("GTGGCATA", "low"),
    ("CGCAAAGC", "mid"),
    ("CAGGCGCG", "mid"),
    ("AGCCAAAG", "low"),
    ("ATCGGCTC", "mid"),
    ("TGGCGTAA", "low"),
    ("AATTACTC", "mid"),
    ("CTCGGCTC", "low"),
    ("TAGCACCA", "low"),
    ("AAGGCGCG", "high"),
    ("CGATGCCC", "low"),
    ("CTCAGAAG", "low"),
    ("CAAACGGC", "high"),
    ("GACACGGC", "high"),
    ("CGTAAGGC", "high"),
    ("AGGCGTAC", "mid"),
    ("AAAACGCC", "high"),
    ("TGGGCACA", "mid"),
    ("ACGGCGAC", "high"),
    ("CATAAGGC", "high"),
    ("CAGGCGCA", "low"),
    ("GCGGCTTA", "mid"),
    ("CGGCGTAG", "high"),
    ("TCGCCGCA", "high"),
    ("CACCGACA", "mid"),
    ("CAAACGGG", "mid"),
    ("CGGCCGCA", "high"),
    ("GGGCGTAC", "low"),
    ("ACGGCTGA", "mid"),
    ("AAGGCGCA", "high"),
    ("GCGGCGAC", "high"),
    ("ACGGCTTG", "high"),
    ("CCGGCTTC", "low"),
    ("GTTCCATA", "low"),
    ("AGCAAGGC", "mid"),
    ("GAAACGGA", "mid"),
    ("ACGGCTTC", "high"),
    ("CCACGGGG", "low"),
    ("AGCGGCTG", "mid"),
    ("GAAACGGC", "high"),
    ("CGAGCCTA", "low"),
    ("AGGCCGCG", "mid"),
    ("AGTAAGGC", "mid"),
    ("CGTAAGGA", "low"),
    ("GAAACGCC", "mid"),
    ("ACGCTAAG", "low"),
    ("CATAAGGG", "low"),
    ("GACACGGA", "high"),
    ("ACACGGCG", "high"),
    ("ACGGCATA", "high"),
    ("TCACGGAA", "mid"),
    ("CCGGCGGA", "low"),
    ("ACGCCGCG", "high"),
    ("AATCCTGT", "low"),
    ("ATGCTATC", "low"),
    ("ATCATTCG", "mid"),
    ("CGCGGCTA", "high"),
    ("CAATTAGG", "mid"),
    ("AGCGGCTC", "high"),
    ("ACTTTACG", "mid"),
    ("GTCACCTA", "low"),
    ("GGCGGCTA", "mid"),
    ("CGATGCCG", "high"),
    ("AAGGCGGT", "mid"),
    ("AGATGCCC", "mid"),
    ("AAAACGGC", "high"),
    ("CTAGAGAA", "mid"),
    ("TCGGCGAA", "low"),
    ("CGGCGTAC", "high"),
    ("AGACTTTC", "low"),
    ("AGGCGTAG", "low"),
    ("ACACGGTG", "mid"),
    ("ATTGCTAC", "low"),
    ("GCGGCGAA", "high"),
    ("ACAGTCGA", "low"),
]
